Values were extracted from patent US20240358849A1.

Recorded pKd values for a group of binders are listed next.
molecular target: T1, human Fibroblast Activation Protein (FAP), soluble antigen (human, UniProt Q12884 26-760, biotinylated when immobilized on streptavidin sensors); experiment: BLI, small-scale crude lysate
T1 construct: also called hFAP; biotinylated FAP
T1 sequence (Q12884 26-760 limits assumed): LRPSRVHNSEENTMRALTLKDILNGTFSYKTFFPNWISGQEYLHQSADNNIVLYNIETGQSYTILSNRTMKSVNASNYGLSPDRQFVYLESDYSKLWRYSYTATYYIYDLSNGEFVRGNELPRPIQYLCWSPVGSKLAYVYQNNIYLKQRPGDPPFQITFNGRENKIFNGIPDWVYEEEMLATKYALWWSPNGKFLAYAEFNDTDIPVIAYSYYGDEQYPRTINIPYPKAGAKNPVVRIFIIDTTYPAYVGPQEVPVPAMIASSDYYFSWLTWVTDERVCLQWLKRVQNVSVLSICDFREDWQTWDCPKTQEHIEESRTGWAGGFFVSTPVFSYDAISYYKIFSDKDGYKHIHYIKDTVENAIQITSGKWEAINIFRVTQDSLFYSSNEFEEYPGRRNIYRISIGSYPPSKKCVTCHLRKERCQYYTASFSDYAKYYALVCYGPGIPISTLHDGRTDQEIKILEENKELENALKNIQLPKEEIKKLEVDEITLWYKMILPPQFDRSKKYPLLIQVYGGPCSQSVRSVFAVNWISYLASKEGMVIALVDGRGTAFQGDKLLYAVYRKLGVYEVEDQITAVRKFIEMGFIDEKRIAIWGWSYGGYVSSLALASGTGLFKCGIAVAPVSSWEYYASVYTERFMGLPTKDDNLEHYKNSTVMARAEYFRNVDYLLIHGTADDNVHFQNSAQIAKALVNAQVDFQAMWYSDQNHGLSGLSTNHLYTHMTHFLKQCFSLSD
pKd: −log10 of the molar value.

[
  {
    "binder": "D029VH T30R:S55L/LV2 (bispecific antibody, V domains shown, also called Rev1:Q27G:P94Y:L96F/S55L:T30R) VH: EVQLVESGGGLVQPGGSLRLSCAASGFTFRWSFMSWVRQAPGKGLEWVSWIGPSGLYTDYADSVKGRFTISRDNSKNTLYLQMNSLRAEDTAVYYCARSQYGRYYSPDYYFDYWGQGTLVTVSS VL: DIQMTQSPSSLSASVGDRVTITCRASGALGFYLNWYQQKPGKAPKLLIYAASSLSSGVPSRFSGSGSGTDFTLTISSLQPEDFATYYCQQGRTYPFTFGQGTKVEIKR",
    "pKd": "~7.00"
  },
  {
    "binder": "D029VH T30R:S55L/LV4 (bispecific antibody, V domains shown, also called Rev1:Q27G:P94Y/S55L:T30R) VH: EVQLVESGGGLVQPGGSLRLSCAASGFTFRWSFMSWVRQAPGKGLEWVSWIGPSGLYTDYADSVKGRFTISRDNSKNTLYLQMNSLRAEDTAVYYCARSQYGRYYSPDYYFDYWGQGTLVTVSS VL: DIQMTQSPSSLSASVGDRVTITCRASGALGFYLNWYQQKPGKAPKLLIYAASSLSSGVPSRFSGSGSGTDFTLTISSLQPEDFATYYCQQGRTYPLTFGQGTKVEIKR",
    "pKd": "~7.00"
  },
  {
    "binder": "D029-HV1LV2 (bispecific antibody, V domains shown, also called Rev1:Q27G:P94Y:L96F/S55L; D029HVILV2 (so in the source)) VH: EVQLVESGGGLVQPGGSLRLSCAASGFTFTWSFMSWVRQAPGKGLEWVSWIGPSGLYTDYADSVKGRFTISRDNSKNTLYLQMNSLRAEDTAVYYCARSQYGRYYSPDYYFDYWGQGTLVTVSS VL: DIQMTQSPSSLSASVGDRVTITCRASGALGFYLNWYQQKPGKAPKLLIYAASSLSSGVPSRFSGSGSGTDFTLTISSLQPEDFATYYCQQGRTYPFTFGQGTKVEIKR",
    "pKd": "~7.00"
  }
]
